As an illustration, consider measured pIC50 for compounds on Rat FAAH (Rattus norvegicus (Rat)).
Sequence (P97612 whole entry): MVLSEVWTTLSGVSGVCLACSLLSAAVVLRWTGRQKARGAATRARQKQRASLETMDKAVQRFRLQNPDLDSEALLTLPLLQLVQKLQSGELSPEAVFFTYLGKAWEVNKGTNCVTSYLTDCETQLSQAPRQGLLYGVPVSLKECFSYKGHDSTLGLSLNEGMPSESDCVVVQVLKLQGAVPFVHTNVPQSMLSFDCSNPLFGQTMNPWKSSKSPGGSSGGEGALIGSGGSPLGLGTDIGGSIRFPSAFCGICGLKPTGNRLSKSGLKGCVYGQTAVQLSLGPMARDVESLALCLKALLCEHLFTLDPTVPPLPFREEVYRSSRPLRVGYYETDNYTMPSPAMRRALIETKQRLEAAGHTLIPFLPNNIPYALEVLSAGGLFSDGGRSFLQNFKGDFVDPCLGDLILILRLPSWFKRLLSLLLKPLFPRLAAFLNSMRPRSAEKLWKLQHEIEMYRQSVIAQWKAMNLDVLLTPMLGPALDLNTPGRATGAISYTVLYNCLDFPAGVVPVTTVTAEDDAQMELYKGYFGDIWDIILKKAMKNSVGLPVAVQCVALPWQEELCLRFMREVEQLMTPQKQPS
pIC50: −log10 of the molar value.
measurement-label: pIC50

>>> print(df.to_string())
                              sample_smiles  experimental_value
0  CNC(=O)c1cccc(-c2cc(OC(=O)NC3CCCCC3)ccc2F)c1                8.85
1  NC(=O)c1cccc(-c2cc(OC(=O)NC3CCCC3)ccc2F)c1                8.54
2  NC(=O)c1cccc(-c2cccc(OC(=O)NC3CCCCC3)c2F)c1                8.72
3  CNC(=O)c1cccc(-c2cc(OC(=O)NC3CCC3)ccc2F)c1                8.29
4  NC(=O)c1cccc(-c2cc(F)cc(OC(=O)NC3CCCCC3)c2)c1                9.64
5  NC(=O)c1cccc(-c2cc(OC(=O)NC3CCCCC3)ccc2OC(F)F)c1                8.85
6  NS(=O)(=O)c1cccc(-c2cc(OC(=O)NC3CCCCC3)ccc2OC(F)F)c1                8.09
7  NC(=O)c1cccc(-c2cc(OC(=O)NC3CCC3)ccc2F)c1                9.05

---

- assay-system: Rat FAAH (Rattus norvegicus (Rat))
- experiment-summary: In vitro rat FAAH radiometric assay
- Format: biochemical
- details: rat brain homogenate, 10 min pre-incubation at 37° C.; read-out: r-FAAH IC50
- Experimental: In Vitro Rat FAAH Radiometric Assay Rat FAAH was prepared from male Sprague Dawley rat brains, homogenized in a potter in 20 mM of Tris HCl pH 7.4, 0.32 M sucrose. […] After 10 min of pre-incubation with test compounds, the reaction was started by adding of 50 μL of substrate and incubating for 30 min at 37° C. […] Radioactivity was measured by liquid scintillation counting (MicroBeta2 LumiJET Perkin Elmer Inc.). […]
pIC50: −log10 of the molar value.
We begin with a simple list: items and their reported pIC50.
measurement-label: pIC50

>>> df
                                   compound  measurement_label  experimental_value
0  CS(=O)(=O)c1cccc(-c2cc(OC(=O)NC3CCCCC3)ccc2OC(F)F)c1 [Example 11]              pIC50                8.54
1  CNC(=O)c1cccc(-c2cc(OC(=O)NC3CCCCC3)ccc2OC(F)F)c1 [Example 9]              pIC50                8.46
2  CNC(=O)c1cccc(-c2cc(OC(=O)NC3CCCC3)ccc2F)c1 [Example 4]              pIC50                8.41
3  CS(=O)(=O)c1cccc(-c2cc(OC(=O)NC3CCCCC3)ccc2F)c1 [Example 7]              pIC50                8.05
4  NS(=O)(=O)c1cccc(-c2cc(OC(=O)NC3CCCCC3)ccc2F)c1 [Example 2]              pIC50                9.15

---

- assay-system: human FAAH-1 (Homo sapiens (Human), UniProt O00519)
- Sequence (O00519 whole entry): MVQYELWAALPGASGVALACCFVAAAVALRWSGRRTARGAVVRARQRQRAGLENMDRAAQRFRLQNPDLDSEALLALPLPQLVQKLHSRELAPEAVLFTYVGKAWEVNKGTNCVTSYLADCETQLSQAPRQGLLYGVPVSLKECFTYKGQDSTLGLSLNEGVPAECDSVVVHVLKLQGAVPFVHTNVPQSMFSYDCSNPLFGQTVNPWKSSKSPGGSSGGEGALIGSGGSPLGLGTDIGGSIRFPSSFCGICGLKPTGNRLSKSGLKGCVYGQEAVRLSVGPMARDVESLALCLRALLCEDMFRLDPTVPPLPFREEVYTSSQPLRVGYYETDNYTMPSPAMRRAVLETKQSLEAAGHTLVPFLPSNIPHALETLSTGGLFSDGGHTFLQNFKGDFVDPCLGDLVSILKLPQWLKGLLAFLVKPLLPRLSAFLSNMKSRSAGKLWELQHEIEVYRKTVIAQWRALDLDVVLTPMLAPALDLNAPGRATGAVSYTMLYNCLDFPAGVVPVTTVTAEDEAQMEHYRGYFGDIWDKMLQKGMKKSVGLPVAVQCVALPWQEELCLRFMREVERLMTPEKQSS
pIC50: −log10 of the molar value.
measurement-label: pIC50

In [3]: df
Out[3]:
                               sample_smiles  experimental_value
 0  CNC(=O)c1cccc(-c2cc(OC(=O)NC3CCCCC3)ccc2F)c1                7.92
 1  NC(=O)c1cccc(-c2cccc(OC(=O)NC3CCCCC3)c2F)c1                9.05
 2  NC(=O)c1cccc(-c2cc(F)cc(OC(=O)NC3CCCCC3)c2)c1                9.06
 3  CNC(=O)c1cccc(-c2cc(OC(=O)NC3CCCC3)ccc2F)c1                8.54
 4  CS(=O)(=O)c1cccc(-c2cc(OC(=O)NC3CCCCC3)ccc2F)c1                8.31
 5  CS(=O)(=O)c1cccc(-c2cc(OC(=O)NC3CCCCC3)ccc2OC(F)F)c1                8.19
 6  NC(=O)c1cccc(-c2cc(OC(=O)NC3CCCCC3)ccc2OC(F)F)c1                8.09
 7  NC(=O)c1cccc(-c2cc(OC(=O)NC3CCCC3)ccc2F)c1                9.08
 8  CNC(=O)c1cccc(-c2cc(OC(=O)NC3CCC3)ccc2F)c1                8.18
 9  NS(=O)(=O)c1cccc(-c2cc(OC(=O)NC3CCCCC3)ccc2F)c1                7.96
10  CNC(=O)c1cccc(-c2cc(OC(=O)NC3CCCCC3)ccc2OC(F)F)c1                7.92
11  NS(=O)(=O)c1cccc(-c2cc(OC(=O)NC3CCCCC3)ccc2OC(F)F)c1                8.04
12  NC(=O)c1cccc(-c2cc(OC(=O)NC3CCC3)ccc2F)c1                8.74
